Readings of percent of DMSO vehicle control at 10 µM for the listed molecules
target.under.test: ABL2 (Homo sapiens, UniProt P42684)
Construct: the DNA-tagged SH2 domain concentrations used in this study were <0.1 nM; made in house; host or cells: HEK293 (transient transfection; unpurified extract)
Sequence (P42684 173-263 limits assumed): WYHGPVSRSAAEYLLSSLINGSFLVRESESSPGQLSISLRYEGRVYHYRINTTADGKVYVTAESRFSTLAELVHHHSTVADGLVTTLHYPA
experimental.protocol: biochemical
Assay type: binding
test.context: read-out: percent of DMSO vehicle control
Non-standard residues stand in square brackets, D forms with d. Residues, ends and D or L forms follow the SMILES beside them. *: point of attachment. pY = N[C@@H](Cc1ccc(OP(=O)(O)O)cc1)C(=O)O; Caffeoyl = O=C(/C=C/c1ccc(O)c(O)c1)*
parameter: percent of DMSO vehicle control at 10 µM

[[record]]
molecule = "NC(=O)CC[C@H](NC(=O)[C@@H]1CC[C@@H]2CCN(C(=O)CCCCCC#Cc3cccc4c3CN(C3CCC(=O)NC3=O)C4=O)C[C@H](NC(=O)c3cc4cc(C(F)(F)P(=O)(O)O)ccc4[nH]3)C(=O)N21)C(=O)NC(c1ccccc1)c1ccccc1 (stereo partly shown) [SD-36]"
parameter = "percent of DMSO vehicle control at 10 µM"
data_value = "126%"

[[record]]
molecule = "CC(=O)N[C@@H](Cc1ccc(CP(=O)(O)O)cc1)C(=O)NC1(C(=O)N[C@@H](CC(N)=O)C(=O)NCCCc2c(O)ccc3ccccc23)CCCCC1 [CGP78850]"
parameter = "percent of DMSO vehicle control at 10 µM"
data_value = "6.2%"

[[record]]
molecule = "CC(=O)N1CC[C@H]2CC[C@@H](C(=O)N[C@@H](CCC(N)=O)C(=O)NC(c3ccccc3)c3ccccc3)N2C(=O)[C@@H](NC(=O)c2cc3cc(C(F)(F)P(=O)(O)O)ccc3[nH]2)C1 [SI-109]"
parameter = "percent of DMSO vehicle control at 10 µM"
data_value = "122%"

[[record]]
molecule = "CC[C@H](C)[C@H](NC(=O)[C@H](CCC(=O)O)NC(=O)[C@H](CCC(=O)O)NC(=O)[C@H](Cc1ccc(OP(=O)(O)O)cc1)NC(=O)/C=C/c1ccc(O)c(O)c1)C(=O)N[C@@H](CCC(=O)O)C(=O)O [Caffeic acid-pYEEIE] (Caffeoyl-[pY]EEIE-OH)"
parameter = "percent of DMSO vehicle control at 10 µM"
data_value = "0.7%"


* * *

Property: Kd; scope: individual compounds
target.under.test: STAT6 (Homo sapiens, UniProt P42226)
Construct: made in house; host or cells: HEK293 (transient transfection), unpurified extract
Sequence (P42226 whole entry): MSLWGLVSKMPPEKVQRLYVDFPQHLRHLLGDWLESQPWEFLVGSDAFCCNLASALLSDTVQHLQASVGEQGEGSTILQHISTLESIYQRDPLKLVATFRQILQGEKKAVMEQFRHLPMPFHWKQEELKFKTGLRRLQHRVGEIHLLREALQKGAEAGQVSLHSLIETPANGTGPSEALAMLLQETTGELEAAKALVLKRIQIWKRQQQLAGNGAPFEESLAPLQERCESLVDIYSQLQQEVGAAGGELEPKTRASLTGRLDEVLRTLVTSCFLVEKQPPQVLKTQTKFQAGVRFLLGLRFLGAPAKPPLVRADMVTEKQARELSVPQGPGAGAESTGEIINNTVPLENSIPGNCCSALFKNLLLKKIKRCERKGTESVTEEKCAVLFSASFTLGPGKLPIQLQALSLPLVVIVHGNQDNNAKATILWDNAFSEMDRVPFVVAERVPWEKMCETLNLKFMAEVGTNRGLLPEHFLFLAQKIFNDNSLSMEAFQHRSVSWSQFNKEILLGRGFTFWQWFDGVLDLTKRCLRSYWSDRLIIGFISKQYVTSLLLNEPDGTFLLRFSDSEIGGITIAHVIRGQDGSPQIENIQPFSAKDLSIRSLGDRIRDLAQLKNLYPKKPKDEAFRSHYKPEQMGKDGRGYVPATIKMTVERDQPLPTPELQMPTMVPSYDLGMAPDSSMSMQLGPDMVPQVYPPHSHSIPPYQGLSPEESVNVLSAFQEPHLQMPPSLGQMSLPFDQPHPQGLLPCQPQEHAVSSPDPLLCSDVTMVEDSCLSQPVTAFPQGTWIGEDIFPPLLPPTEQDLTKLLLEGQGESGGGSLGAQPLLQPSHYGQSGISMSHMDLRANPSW
experimental.protocol: biochemical
Assay type: binding
test.context: dose-response; read-out: KD
parameter: Kd (nM)

[[record]]
compound_structure = "O=C(COc1ccc2cc(C(=O)Nc3ccccc3)ccc2c1)NCc1ccc(OP(=O)(O)O)c(OP(=O)(O)O)c1"
result_unit = "nM"
data_value = 7300

[[record]]
compound_structure = "CC(C)(C)[C@H](NC(=O)/C=C/c1ccc(OP(=O)(O)O)cc1)C(=O)N1CCC[C@H]1C(=O)N(c1ccccc1)c1ccc(I)cc1"
result_unit = "nM"
data_value = 8.6

[[record]]
compound_structure = "C/C(=C\\C(=O)N[C@H](C(=O)N1CCC[C@H]1C(=O)N(c1ccccc1)c1ccc(I)cc1)C(C)(C)C)c1ccc(OP(=O)(O)O)cc1"
result_unit = "nM"
data_value = 0.68


* * *

target.under.test: STAT3(S614R)-nonphosphorylated (Homo sapiens, UniProt P40763, S614R)
Construct: made in house; host or cells: HEK293 (transient transfection), unpurified extract, dephosphorylated by endogenous phosphatases
Sequence (P40763 whole entry S614R): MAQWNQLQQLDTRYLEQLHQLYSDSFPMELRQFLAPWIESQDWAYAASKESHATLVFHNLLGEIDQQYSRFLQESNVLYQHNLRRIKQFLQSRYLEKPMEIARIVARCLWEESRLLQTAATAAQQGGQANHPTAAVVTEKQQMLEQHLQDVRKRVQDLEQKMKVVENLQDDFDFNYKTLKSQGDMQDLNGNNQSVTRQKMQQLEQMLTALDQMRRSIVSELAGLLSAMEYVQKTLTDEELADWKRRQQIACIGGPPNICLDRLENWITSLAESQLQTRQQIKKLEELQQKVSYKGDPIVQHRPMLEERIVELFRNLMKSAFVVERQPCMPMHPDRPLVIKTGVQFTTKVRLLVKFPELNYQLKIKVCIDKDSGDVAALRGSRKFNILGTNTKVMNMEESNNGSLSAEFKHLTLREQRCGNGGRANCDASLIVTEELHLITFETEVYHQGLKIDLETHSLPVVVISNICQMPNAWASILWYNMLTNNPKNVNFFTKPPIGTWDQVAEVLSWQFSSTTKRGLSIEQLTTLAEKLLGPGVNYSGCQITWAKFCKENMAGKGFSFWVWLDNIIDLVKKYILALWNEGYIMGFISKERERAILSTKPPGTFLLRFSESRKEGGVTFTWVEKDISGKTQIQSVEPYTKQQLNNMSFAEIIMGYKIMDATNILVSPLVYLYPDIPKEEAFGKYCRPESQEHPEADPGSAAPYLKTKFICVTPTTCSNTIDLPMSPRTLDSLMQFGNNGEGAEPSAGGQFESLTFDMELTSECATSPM
experimental.protocol: biochemical
Format: binding
test.context: primary screen, 10 μM; read-out: percent of DMSO vehicle control
# remaining activity at 10 µM annotations
parameter: remaining activity at 10 µM (%)

[[record]]
compound_structure = "O=C(COc1ccc2cc(C(=O)Nc3ccccc3)ccc2c1)NCc1ccc(OP(=O)(O)O)c(OP(=O)(O)O)c1"
parameter = "remaining activity at 10 µM"
result_unit = "%"
data_value = 87.4

[[record]]
compound_structure = "C/C(=C\\C(=O)N[C@H](C(=O)N1CCC[C@H]1C(=O)N(c1ccccc1)c1ccc(I)cc1)C(C)(C)C)c1ccc(OP(=O)(O)O)cc1"
parameter = "remaining activity at 10 µM"
result_unit = "%"
data_value = 0

[[record]]
compound_structure = "CC(C)(C)[C@H](NC(=O)/C=C/c1ccc(OP(=O)(O)O)cc1)C(=O)N1CCC[C@H]1C(=O)N(c1ccccc1)c1ccc(I)cc1"
parameter = "remaining activity at 10 µM"
result_unit = "%"
data_value = 0.1

[[record]]
compound_structure = "O=C(CCl)Nc1cccc(CNC(=O)[C@H](Cc2ccc(OP(=O)(O)O)cc2)NC(=O)Cc2ccc(F)cc2)c1"
parameter = "remaining activity at 10 µM"
result_unit = "%"
data_value = 95.7

